pIC50: −log10 of the molar value.
measured_attribute: pIC50

Short answer on mRNA cap guanine-N(7) methyltransferase (Homo sapiens, UniProt O43148) for Nc1ncnc2c1ncn2[C@@H]1O[C@H](C[C@@H](N)CC[C@H](N)C(=O)O)[C@@H](O)[C@H]1O , pIC50: > 7.30

====

assay: Inhibition of SARS-CoV C-terminal 6His-tagged papain-like protease expressed in Escherichia coli BL21(DE3) using ubiquitin-AMC as substrate preincubated for 10 mins followed by substrate addition by luminescence spectrometric method; design: species or system Severe acute respiratory syndrome-related coronavirus
measured_attribute: IC50 (µM)
Numbers only here, please. The scale is µM.

The compound Nc1nc2[nH]cnc2c(=S)[nH]1 [THIOGUANINE] showed IC50 equal to 5

FYI, the data here is from ChEMBL document CHEMBL4715856.
